Data provenance is patent US20250228765A1.

- test-summary: Comparative study in rats: synovial fluid pharmacokinetics after intraarticular dosing
- Type: in vivo
- condition-summary: male, rat, 9.6 ng, across the three formulations, read-out: half-life in SF (range)

{"columns": ["molecule", "half-life"],
 "data": [
  ["C=C(C)[C@]12C[C@@H](C)[C@@]34O[C@](Cc5ccccc5)(O[C@@H]1[C@@H]3C=C(COC(=O)Cc1ccc(O)c(OC)c1)C[C@]1(O)C(=O)C(C)=C[C@@H]41)O2 [Resiniferatoxin]", "1.07 to 1.85 h"]
]}

---

- test-summary: Comparative study in rats: knee tissue concentrations after intraarticular dosing
- Format: in vivo
- condition-summary: male, rat, other: intraarticular, 9.6 ng/knee, knee tissues, across the three formulations; read-out: half-life in the tissues (converted)
property: half-life

{"columns": ["molecule", "value-measured"],
 "data": [
  ["C=C(C)[C@]12C[C@@H](C)[C@@]34O[C@](Cc5ccccc5)(O[C@@H]1[C@@H]3C=C(COC(=O)Cc1ccc(O)c(OC)c1)C[C@]1(O)C(=O)C(C)=C[C@@H]41)O2 [Resiniferatoxin]", "~1.5 h"]
]}

---

- test-summary: Comparative study in rats: knee tissue concentrations after intraarticular dosing
- Type: in vivo
- condition-summary: male, rat, 9.6 ng, knee tissues, across the three formulations; read-out: half-life in the tissues (converted)
- Experimental: Animals: 63 male rats (21 rats per formulation; plus an additional 3 animals as a replacement). Body weight: average 263 g (236-295 g). Dose (IA): ˜36.6 ng/kg=>9.6 ng/knee as an injection of 30 μL/knee of three various formulations with concentration 320 ng/mL. PK sampling: 7 timepoints: 10 min (animals not fully conscious between dosing and sampling), 20 min, 30 min, 1 h, 1.5 h, 2 h and 4 h (one sample per rat; 3 rats per timepoint) in plasma and synovial fluid. […]

{"columns": ["mol", "half-life"],
 "data": [
  ["C=C(C)[C@]12C[C@@H](C)[C@@]34O[C@](Cc5ccccc5)(O[C@@H]1[C@@H]3C=C(COC(=O)Cc1ccc(O)c(OC)c1)C[C@]1(O)C(=O)C(C)=C[C@@H]41)O2", "~1.5 h"]
]}
